# Assay Remarks: Oral exposure in cynomolgus monkeys, compound alone or with excipient in capsules; plasma by LC-MS/MS
# Type: in vivo
# Measurement Conditions: male, cynomolgus monkey, plasma, po, 50 mg, oral, enteric capsule, dose 50 mg, with 275 mg sodium phytate, hexasodium, fasted; read-out: Cmax
Measurement Kind: Cmax (ng/mL)

>>> obs_value("C[C@H](Nc1cc(Cl)nc2c1cnn2[C@@H]1O[C@H](COP(=O)(O)CP(=O)(O)O)[C@@H](O)[C@H]1O)c1ccccc1F [Ia (•3Na)]")
4440

----------
# Assay Remarks: Oral exposure in cynomolgus monkeys, compound alone or with excipient in capsules; plasma by LC-MS/MS
# Format: in vivo
# Measurement Conditions: male, cynomolgus monkey, plasma, po, 50 mg, oral, enteric capsule, dose 50 mg, with 100 mg Na-EDTA, fasted; read-out: Cmax
Measurement Kind: Cmax (ng/mL)

>>> obs_value("C[C@H](Nc1cc(Cl)nc2c1cnn2[C@@H]1O[C@H](COP(=O)(O)CP(=O)(O)O)[C@@H](O)[C@H]1O)c1ccccc1F [Ia (•3Na)]")
6840
